- Test system: A549
- Test method notes: NCI tumour cell line growth inhibition, 48 h
Counter-ions that a name gives are not always drawn. The source made the active and inactive calls. Rule as the data show it: active = GI50 up to about 1.1 µM and inactive = higher.
Possible outcomes: Y = active, N = inactive

> print(dat)
                                   molecule  class.assignment
1  COc1ccc2c(c1OC)C(C=C(c1ccccc1)c1ccccc1)CN(C)C2 (centres undefined)                 N
2  O=C(N/N=C/C=C/c1ccc([N+](=O)[O-])o1)c1ccc(C(=O)N/N=C/C=C/c2ccc([N+](=O)[O-])o2)cc1                 N
3  N=C1N(c2ccccc2)C(=O)C23CCCC2C13N1CCOCC1 (centres undefined)                 N
4  CC(C)C[C@H](NC(=O)[C@H](Cc1cccc2ccccc12)NS(=O)(=O)c1cccc2cccnc12)B(O)O                 Y
5  COC1(OC)CC2OC1C1N=NN(C(=O)OC(C)(C)C)C21 (centres undefined)                 N
6  CCn1c(=O)c2c3ccc(OC)cc3[nH]c2c2ccc(OC)cc21                 N
7  C/C(=N\NC(=S)N1CCC(C2CCN(C(=S)N/N=C(\C)c3ccccn3)CC2)CC1)c1ccccn1                 N
8  COc1cccc2c1C(=O)c1c(O)c3c(c(O)c1C2=O)C[C@@](O)(C(=O)CO)C[C@@H]3OC1CC(N(C)C)C(O)C(C)O1 (some centres undefined)                 Y
9  CCCCc1oc2ccccc2c1C(=O)c1cc(I)c(OCCN(CC)CC)c(I)c1 [AMIODARONE HYDROCHLORIDE]                 N

###

- System: OVCAR-3
- Test method notes: NCI tumour cell line growth inhibition, 48 h
Active and inactive are the calls of the source. Rule as the data show it: active = GI50 up to about 1.1 µM and inactive = higher.
Possible outcomes: label 1 = active, label 0 = inactive

Compound	Subject of test	Class assignment
COC1C=CC(C(=O)[N+]2=Cc3[nH]c4ccccc4c3CC2)O1 (stereo not given)	OVCAR-3	label 0
CC(C)(C)CC(C)(C)c1cc2c(O)c(c1)Cc1cc(C(C)(C)CC(C)(C)C)cc(c1O)Cc1cc(C(C)(C)CC(C)(C)C)cc(c1O)Cc1cc(C(C)(C)CC(C)(C)C)cc(c1O)C2	OVCAR-3	label 0
C=CCC1=CC2(OC)C(=O)C(OC)(OC)C1C1C(OC)(OC)C(=O)C(OC)=CC12CC=C (stereo not given)	OVCAR-3	label 0
CC(=O)N(CCc1ccccc1)C(C)(C#N)c1ccccc1 (stereo not given)	OVCAR-3	label 0
COC(=O)CC1CC2(C(=O)OC)c3[nH]c4ccccc4c3CCN2C1=O (stereo not given)	OVCAR-3	label 0
S=C(Nc1ccc2c(c1)oc1ccccc12)c1cccnc1	OVCAR-3	label 0
CC(=O)Nc1ccc(-c2nc3ccccc3s2)cc1Br	OVCAR-3	label 1
O=C(Nc1ccccc1F)c1cc2ccc(O)cc2o/c1=N\c1cccc(F)c1	OVCAR-3	label 0
COc1c(-c2ccccc2)nc2ccc(Oc3ccccc3)nn12	OVCAR-3	label 0
NC(=S)NNCC(=O)CC(O)(C(F)(F)F)C(F)(F)Cl (stereo not given)	OVCAR-3	label 0

###

- Tested on: SNB-19
- Test method notes: NCI tumour cell line growth inhibition, 48 h
Active and inactive are the calls of the source. Cut-off read from the data, not from the text of the source: active = GI50 up to about 1.1 µM and inactive = higher.
Possible outcomes: active, inactive

> print(dat)
                                    compound  class.assignment
 1  COc1ccc2cc(CNCCOCCOCCNCc3ccc4cc(OC)ccc4c3)ccc2c1          inactive
 2  CCOc1ccc(/N=N/c2c(-c3ccccc3)nn(C(=O)CC(=O)Nc3ccccc3Cl)c2-c2ccccc2)cc1          inactive
 3                Cc1c(-c2ccccn2)ccc2ccccc12          inactive
 4  Cc1ccc(S(=O)(=O)OC(c2ccc(Cl)cc2Cl)C2OC(=O)c3ccccc32)cc1 (stereo not given)          inactive
 5  Fc1ccc(OCc2nc3cc(C(F)(F)F)ccc3nc2-c2ccccc2)cc1          inactive
 6  COc1ccc(C(=O)C(c2ccc(OC)cc2)C2(O)C(=O)Nc3ccccc32)cc1 (stereo not given)          inactive
 7  CC(=O)Nc1ccc(C2=N/C(=C\c3ccc(Cl)cc3)C(=O)O2)cc1          inactive
 8  CC(=O)OCCOCn1c2ccccc2c2c3c(c4c5ccccc5n(COCCOC(C)=O)c4c21)C(=O)N(Cc1ccccc1)C3=O          inactive
 9  CCc1ccccc1NC(=O)C(=O)C(C#N)c1c(Cl)cccc1Cl (stereo not given)          inactive
10  Cc1ccc(C2SCC(=O)N2c2ccc(-n3c(-c4ccccc4)nc4ccccc4c3=O)cc2)cc1 (stereo not given)          inactive
11  Cc1ccc(S(=O)(=O)/N=C(\NN)Nc2ccc(Cl)cc2)cc1          inactive
12         CSc1ccccc1P(c1ccccc1SC)c1ccccc1SC          inactive
13  N=C(CCl)NC1CN2CCC1CC2 (stereo not given)          inactive
14  O=c1c2cc([N+](=O)[O-])ccc2[nH]n1Cc1ccccn1          inactive
15          CNC1=Nc2ccccc2C(=S)N2CSC[C@@H]12          inactive
16  C=C1CC[C@@H]2C(C)(C)C(O)CCC2(C)C1COc1ccc2ccc(=O)oc2c1 (stereo not given in full)          inactive
17  O=C(O)c1ccccc1/N=N/c1c(O)c(S(=O)(=O)O)cc2cc(S(=O)(=O)O)ccc12          inactive
18  O=C(Nc1ccc(Cl)cc1Cl)C1C(=O)OC2(CCCCC2)OC1=O          inactive
19  CN(C)CCCN1C(=S)N(CCCN(C)C)c2c3cc(O)ccc3nc3c([N+](=O)[O-])ccc1c23          inactive
20        C[N+](C)([O-])C12CC3CC(CC(C3)C1)C2          inactive
21  Cc1ccc(C(=O)Nc2ccc(CP(=O)(O)O)cc2CP(=O)(O)O)cc1NC(=O)Nc1cc(C(=O)Nc2ccc(CP(=O)(O)O)cc2CP(=O)(O)O)ccc1C          inactive
22                N/C(=N\O)N/N=C/c1cccc(F)c1          inactive
23  Clc1ccc(C2N3CCCCC3[C@@H]3c4[nH]c5ccccc5c4CCN23)cc1 (stereo not given in full)          inactive
24  Cc1cccc(NC(=O)C(=O)C(C2OC(=O)c3ccccc32)[N+](=O)[O-])c1C (stereo not given)          inactive
25  COc1ccc2/c(=C/c3ccc(N(C)C)cc3)c3cc(-c4ccccc4)[n+](C)n3c2c1            active
26  CN(/N=C/c1cccs1)c1ccc([N+](=O)[O-])cc1[N+](=O)[O-]          inactive
27  COc1c(OC)c(OC)c2c(=O)c(OC)c(-c3ccc4c(c3)OCO4)oc2c1OC          inactive
28  CS(=O)(=O)OC1CCC2(C#N)CCC1C2=O (stereo not given)          inactive
29  COc1ccc(N2C(=O)C3c4[nH]c5ccc(C)cc5c4C4CCC(C(C)(C)C)CC4C3C2=O)cc1 (stereo not given)          inactive
30  CS/C(Nc1ccccc1)=C1\C(=O)N(c2ccccc2)N=C1C          inactive
31  CCOC(=O)c1ccc(Nc2nc3ccc(C(F)(F)F)cc3nc2C(=O)OCC)cc1          inactive
32               O=c1c2ccccc2c(=O)n2n1CC=CC2          inactive
33  CCOC(=O)c1nc2ccc(C(F)(F)F)cc2nc1Nc1ccc(OC)c(OC)c1          inactive
34  COc1cccc2c1C(=O)c1c(O)c3c(c(O)c1C2=O)C[C@@](O)(C(=O)CO)C[C@@H]3OC1CC(N(C)C)C(O)C(C)O1 (stereo not given in full)            active
35  CC(=O)OCC(OC(C)=O)C(OC(C)=O)C(OC(C)=O)C(/C=N\Nc1nc2ccccc2c(=O)[nH]1)OC(C)=O (stereo not given)          inactive
36  COc1cc(S(=O)(=O)Nc2ccc(-c3csc(N4C(=O)CSC4c4cccs4)n3)cc2)ccc1Cl (stereo not given)          inactive
37  Cc1ccc(Nc2nc(=O)c3c4ccccc4n(C(=O)OC(C)(C)C)c3s2)cc1          inactive
38        O=C1OC(=O)c2c1nc1ccccc1c2-c1ccccc1          inactive
39                               NCCCCNOCCCN          inactive
40  C[C@]12CC[C@@H]3c4cc(OCC(F)(F)F)c(O)cc4/C(=N/O)C[C@H]3[C@@H]1CC[C@@H]2O            active
